The reported measurements were obtained from ChEMBL document CHEMBL1201862.

test system: Cytochrome P450 3A4 (Homo sapiens, UniProt P08684);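 further: CYP3A4 tested as one member of a cytochrome P450 panel screen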
Sequence (P08684 whole entry): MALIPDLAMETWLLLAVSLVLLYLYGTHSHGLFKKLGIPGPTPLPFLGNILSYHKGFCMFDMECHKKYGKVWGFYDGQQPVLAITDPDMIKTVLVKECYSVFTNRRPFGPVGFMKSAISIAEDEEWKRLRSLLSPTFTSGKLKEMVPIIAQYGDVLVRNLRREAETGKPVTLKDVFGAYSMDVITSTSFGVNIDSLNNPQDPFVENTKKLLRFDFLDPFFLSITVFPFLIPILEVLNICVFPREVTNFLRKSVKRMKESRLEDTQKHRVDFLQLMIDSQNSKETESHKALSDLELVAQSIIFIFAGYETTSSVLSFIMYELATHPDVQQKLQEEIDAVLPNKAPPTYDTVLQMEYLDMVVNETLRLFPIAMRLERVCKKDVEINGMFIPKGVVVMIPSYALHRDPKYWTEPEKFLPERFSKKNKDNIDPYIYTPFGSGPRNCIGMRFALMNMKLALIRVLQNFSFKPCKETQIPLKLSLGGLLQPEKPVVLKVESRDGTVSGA
readout name: AC50

> print(dat)
                                    molecule               obs.value
 1         CC(=O)NCCNc1ncncc1-c1ccccc1CN(C)C  12.6 µM (inconclusive)
 2  Cc1ccc(C(=O)NNC(=O)c2cc3cc4ccccc4nc3s2)cc1  4.47 µM (inconclusive)
 3  O=c1c(-c2cccs2)nc2cnc(Oc3cccc(Cl)c3)nc2n1C[C@H]1CCCO1    10 µM (inconclusive)
 4         Br/C(=N\N=c1/nn[nH][nH]1)c1ccncc1  5.01 µM (inconclusive)
 5    COc1ccc(-n2c(=O)c(C)nc3cnc(OC)nc32)cc1  25.1 µM (inconclusive)
 6  CCC(C(=O)Nc1cccc(C(F)(F)F)c1)c1ccccc1 (stereo not given)  14.1 µM (inconclusive)
 7    O=[N+]([O-])c1cc(/C=N/O)ccc1SCc1ccccc1  11.2 µM (inconclusive)
 8  Cc1ccc2[nH]c(SCC(=O)Nc3nnc(SCC(N)=O)s3)nc2c1  22.4 µM (inconclusive)
 9  SC1=NC2=C(C(c3ccc(Br)cc3)N1)N1CCC2CC1 (stereo not given)  1.58 µM (inconclusive)
10         CC(C)(C)c1cc2cccnc2n1Cc1cccc(F)c1  15.8 µM (inconclusive)
11  CCOC(=O)CSc1nnc(CSc2nc3sc4c(c3c(=O)[nH]2)CCCC4)n1-c1ccccc1     1 µM (inconclusive)
12      Cc1ccc(Sc2nc(C)cc(C)c2S(C)(=O)=O)cc1  14.1 µM (inconclusive)
13            Cc1ccccc1OCCCn1c(=O)sc2ccccc21  17.8 µM (inconclusive)
14  O=C(c1cnc(N2CCN(c3ncccn3)CC2)c2ccccc12)N1CCN(c2ncccn2)CC1  39.8 µM (inconclusive)
15  COc1ccc2c(c1)N(C[C@@H](C)CN(C)C)c1ccccc1S2  7.94 µM (inconclusive)
16  O=C(Oc1ccccc1)N1CCC[C@@]2(CCN(Cc3ccccc3)C2)C1  15.8 µM (inconclusive)
17  CCOc1cc(C2NC(=O)NC(c3ccccc3)=C2C(C)=O)ccc1OCC(N)=O (stereo not given)    20 µM (inconclusive)
18    COc1cccc(-c2nc(NC3CCNCC3)c3ccccc3n2)c1  25.1 µM (inconclusive)
19  COc1ccc(NC(=O)N2CC[C@@]3(CCCN(C(=O)c4cccn4C)C3)C2)cc1     2 µM (inconclusive)
20     COc1ccc(CCNC(=O)c2nnc(O)c3ccccc23)cc1  7.08 µM (inconclusive)
21  Cc1ccc(CCN2CC(C(=O)NCCN3CCCCCC3)CC2=O)cc1 (stereo not given)  35.5 µM (inconclusive)
22  CCCC[C@@H]1C[C@H]1C(NC(=O)Cc1ccccc1)c1ccc(-c2ccccc2)cc1 (stereo not given in full)  12.6 µM (inconclusive)
23         COCCNc1ncnc2ccc(-c3c(C)noc3C)cc12  31.6 µM (inconclusive)
24  CCOc1ccccc1C1C(C#N)=C(N)Oc2[nH]nc(CC)c21 (stereo not given)  7.08 µM (inconclusive)
25  CCN(CC)Cc1c(O)ccc2c(=O)c(Oc3ccccc3OC)coc12  25.1 µM (inconclusive)
